The following compounds are shown together with reported MIC values.
# Tested on: Enterobacter cloacae ATCC 27508
# Test method notes: Antibacterial activity, MIC
# Format: cell-based
# Condition label: ATCC27508, ATCC 27508, agar two-fold dilution, 37° C., 20 hours, read-out: MIC
Please state the figure in µg/mL; there is no need to write the unit.

Solved entries:
Q. Entry C=CC[n+]1c(N)cc(N)nc1SCC1=C(C(=O)[O-])N2C(=O)C(NC(=O)/C(=N\OC(C)C(=O)O)c3csc(N)n3)C2SC1 (stereo not drawn) has what MIC?
A. 0.016

Q. Fill blank: measured MIC of the compound CCC[n+]1c(N)cc(N)nc1SCC1=C(C(=O)[O-])N2C(=O)C(NC(=O)/C(=N\OCC)c3nsc(N)n3)C2SC1 (stereo not drawn) is ____.
A. 0.031

Q. What MIC value was documented for this compound, CC[n+]1c(N)cc(N)nc1SCC1=C(C(=O)[O-])N2C(=O)C(NC(=O)/C(=N\OC)c3nsc(N)n3)C2SC1 (stereo not drawn) ?
A. 0.031

Continuing:
Q. Item under review: C[n+]1c(N)cc(N)nc1SCC1=C(C(=O)[O-])N2C(=O)C(NC(=O)/C(=N\OC(C)(C)C(=O)O)c3csc(N)n3)[C@H]2SC1 (stereo partly drawn) . Reported MIC?
A. 0.016

Q. Value lookup for MIC; key = CCc1c(N)nc(SCC2=C(C(=O)[O-])N3C(=O)C(NC(=O)/C(=N\OC(C)(C)C(=O)O)c4csc(N)n4)C3SC2)[n+](C)c1N (stereo not drawn)
A. 0.016

###

# Test method notes: In-vivo absorbency (plasma concentrations & pharmacokinetic parameters)
# Set-up: species or system SD rat (male)
# Condition label: plasma; 2.5 min; SD male rat, iv 20 mg/kg; read-out: Plasma Conc.
Classify: YES when concentration at 2.5 min is strictly less than 90 µg/mL; NO when concentration at 2.5 min is not.

# example entries with known answers
Q. Lab log: compare recorded concentration at 2.5 min with 90 µg/mL; is it strictly lower for CC(C)(O/N=C(\C(=O)NC1C(=O)N2C(C(=O)[O-])=C(CSc3nc(N)cc(N)[n+]3N)CS[C@H]12)c1csc(N)n1)C(=O)O (some centres unmarked) ?
A. NO

Q. concentration at 2.5 min strictly < 90 µg/mL for this compound? CCC[n+]1c(N)cc(N)nc1SCC1=C(C(=O)[O-])N2C(=O)C(NC(=O)/C(=N\OC(C)C(=O)O)c3csc(N)n3)C2SC1 (centres unmarked)
A. YES

Further cases:
Q. concentration at 2.5 min under 90 µg/mL? Item: CC(O/N=C(\C(=O)NC1C(=O)N2C(C(=O)[O-])=C(CSc3nc(N)cc(N)[n+]3C)CSC12)c1csc(N)n1)C(=O)O (centres unmarked)
A. YES

Q. Take the compound CC[n+]1c(N)cc(N)nc1SCC1=C(C(=O)[O-])N2C(=O)C(NC(=O)/C(=N\OC(C)(C)C(=O)O)c3csc(N)n3)C2SC1 (centres unmarked) and say whether its concentration at 2.5 min is less than 90 µg/mL.
A. YES

Q. API: query returns whether the compound falls strictly under 90 µg/mL in concentration at 2.5 min. Query: Cc1c(N)nc(SCC2=C(C(=O)[O-])N3C(=O)C(NC(=O)/C(=N\OC(C)(C)C(=O)O)c4csc(N)n4)C3SC2)[n+](C)c1N (centres unmarked)
A. NO

Q. Decide: concentration at 2.5 min of CCc1c(N)nc(SCC2=C(C(=O)[O-])N3C(=O)C(NC(=O)/C(=N\OC(C)(C)C(=O)O)c4csc(N)n4)C3SC2)[n+](C)c1N (centres unmarked) strictly below 90 µg/mL?
A. YES

Q. For CC[n+]1c(SCC2=C(C(=O)[O-])N3C(=O)C(NC(=O)/C(=N\OC(C)(C)C(=O)O)c4csc(N)n4)C3SC2)nc(N)c(C)c1N (centres unmarked) , is the recorded concentration at 2.5 min below the cut-off of 90 µg/mL?
A. YES

Q. Please check: concentration at 2.5 min for C[n+]1c(N)cc(N)nc1SCC1=C(C(=O)[O-])N2C(=O)C(NC(=O)/C(=N\OC(C)(C)C(=O)O)c3csc(N)n3)[C@H]2SC1 (some centres unmarked) , strictly under 90 µg/mL or not?
A. NO

Q. Is concentration at 2.5 min of C[n+]1c(N)cc(N)nc1SCC1=C(C(=O)[O-])N2C(=O)C(NC(=O)/C(=N\OCC(=O)O)c3csc(N)n3)C2SC1 (centres unmarked) strictly below 90 µg/mL?
A. YES

Q. Is concentration at 2.5 min strictly under 90 µg/mL for the entry CCc1c(N)nc(SCC2=C(C(=O)[O-])N3C(=O)C(NC(=O)/C(=N\OC(C)(C)C(=O)O)c4csc(N)n4)C3SC2)[n+](CC)c1N (centres unmarked) ?
A. YES

Q. Identify whether the compound CCO/N=C(\C(=O)NC1C(=O)N2C(C(=O)[O-])=C(CSc3nc(N)cc(N)[n+]3N)CSC12)c1csc(N)n1 (centres unmarked) records concentration at 2.5 min below 90 µg/mL.
A. NO

Source of measurements: patent US5202315A
